# melting point annotations

>>> readout_value("O=c1[nH]c(Cc2ccc3[nH]ncc3c2)nc2c1c(C1CC1)nn2-c1c(Cl)cc(Cl)cc1Cl [Example 72]")
"274 to 283 °C"

Look up melting point: CSc1nn(-c2ccccc2Cl)c2nc(Cc3ccc(O)cc3)[nH]c(=O)c12 [Example 149]
243 to 244 °C

Check CCc1nn(-c2ccccc2F)c2nc(Cc3cccc(OC)c3)[nH]c(=O)c12 [Example 154] too.
193 to 194 °C

Check CC(C)c1nn(-c2c(Cl)cc(Cl)cc2Cl)c2nc(Cc3cccnc3)[nH]c(=O)c12 [Example 64] too.
214 to 215 °C

Provenance of the data: patent US6531477B1
